- COND: mouse, microsomes, 1 h, 1 μM, pH 7.4
MEASURED PARAMETER: Plus NADPH Parent remaining 1st (%)

                            compound_string  val
0  NC(=O)C1CCN(c2nc(-c3ccc4c(c3)OCCO4)cs2)CC1    1

(I) NC(=O)C1CCN(c2nc(-c3ccc(Br)cc3)cs2)CC1
(II) CN(C)c1cccc(-c2csc(N3CCC(C(N)=O)CC3)n2)c1
So which one has the bigger Plus NADPH Parent remaining 1st here, I or II ? Mark your answer with the label of the selected entry.
I
(I: 55%, II: 0%)

----------
- COND: mouse, microsomes, 1 h, 1 μM, pH 7.4
MEASURED PARAMETER: Plus NADPH Parent remaining 2nd (%)

                                   molecule  unit_string  val
0  CN(C)c1cccc(-c2csc(N3CCC(C(N)=O)CC3)n2)c1 [Example 63]            %    0

(A) NC(=O)C1CCN(c2nc(-c3ccc4c(c3)OCCO4)cs2)CC1 [Example 48]
(B) O=C(O)C1CCN(c2nc(-c3ccc(Br)cc3)cs2)CC1 [Example 69]
(C) NC(=O)C1CCN(c2nc(-c3ccc(Br)cc3)cs2)CC1 [Example 23]
Arrange items by their Plus NADPH Parent remaining 2nd values in increasing order. Answer format: the labels, in the requested order.
A, C, B
(A: 0%, C: 43%, B: 85%)
